Biological target: human MATE2 (Homo sapiens, UniProt Q86VL8)
Sequence (Q86VL8 1-566 isoform Q86VL8-3): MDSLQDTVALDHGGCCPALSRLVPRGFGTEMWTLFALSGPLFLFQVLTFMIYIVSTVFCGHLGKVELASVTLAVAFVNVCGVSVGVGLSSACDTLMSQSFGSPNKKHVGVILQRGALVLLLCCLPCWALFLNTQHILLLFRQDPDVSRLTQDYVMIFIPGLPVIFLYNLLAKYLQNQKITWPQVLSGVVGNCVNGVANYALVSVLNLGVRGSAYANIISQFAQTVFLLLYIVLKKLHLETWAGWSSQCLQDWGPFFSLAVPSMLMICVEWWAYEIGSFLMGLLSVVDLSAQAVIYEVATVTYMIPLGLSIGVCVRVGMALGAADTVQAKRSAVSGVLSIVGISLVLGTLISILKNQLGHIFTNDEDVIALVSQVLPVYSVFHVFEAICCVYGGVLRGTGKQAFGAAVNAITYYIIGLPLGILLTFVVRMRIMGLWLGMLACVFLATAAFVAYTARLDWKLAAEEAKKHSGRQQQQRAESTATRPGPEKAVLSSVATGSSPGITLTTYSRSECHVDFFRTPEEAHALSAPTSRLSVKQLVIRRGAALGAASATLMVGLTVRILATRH
measured attribute: pIC50
FYI, pIC50 means -log10 of a concentration in mol per litre.

# molecule, pIC50
records = [
    ("N#CC[C@H](C1CCCC1)n1cc(-c2ncnc3[nH]ccc23)cn1", 5.43),
]

Recall the recorded pIC50 for `CCC(CC)COC(=O)[C@H](C)N[P@](=O)(OC[C@H]1O[C@@](C#N)(c2ccc3c(N)ncnn23)[C@H](O)[C@@H]1O)Oc1ccccc1` with human MATE2 (Homo sapiens, UniProt Q86VL8) and state it. 4.82

Recall the recorded pIC50 for `CN(C)C(=O)COC(=O)Cc1ccc(OC(=O)c2ccc(NC(=N)N)cc2)cc1` with human MATE2 (Homo sapiens, UniProt Q86VL8) and state it. 5.70

Recall the recorded pIC50 for CCN(CCO)CCCC(C)Nc1ccnc2cc(Cl)ccc12 (stereo not drawn) [Hydroxychloroquine] with human MATE2 (Homo sapiens, UniProt Q86VL8) and state it. 6.10

Recall the recorded pIC50 for `Cc1cccc(C)c1OCC(=O)N[C@@H](Cc1ccccc1)[C@@H](O)C[C@H](Cc1ccccc1)NC(=O)[C@H](C(C)C)N1CCCNC1=O` with human MATE2 (Homo sapiens, UniProt Q86VL8) and state it. 4.60

Recall the recorded pIC50 for `C[C@@H]1CCN(C(=O)CC#N)C[C@@H]1N(C)c1ncnc2[nH]ccc12` with human MATE2 (Homo sapiens, UniProt Q86VL8) and state it. 4.16

Recall the recorded pIC50 for `CCOC(=O)c1c(CSc2ccccc2)n(C)c2cc(Br)c(O)c(CN(C)C)c12` with human MATE2 (Homo sapiens, UniProt Q86VL8) and state it. 5.39

---

Target: BCRP (Homo sapiens, UniProt Q9UNQ0)
Sequence (Q9UNQ0 1-655): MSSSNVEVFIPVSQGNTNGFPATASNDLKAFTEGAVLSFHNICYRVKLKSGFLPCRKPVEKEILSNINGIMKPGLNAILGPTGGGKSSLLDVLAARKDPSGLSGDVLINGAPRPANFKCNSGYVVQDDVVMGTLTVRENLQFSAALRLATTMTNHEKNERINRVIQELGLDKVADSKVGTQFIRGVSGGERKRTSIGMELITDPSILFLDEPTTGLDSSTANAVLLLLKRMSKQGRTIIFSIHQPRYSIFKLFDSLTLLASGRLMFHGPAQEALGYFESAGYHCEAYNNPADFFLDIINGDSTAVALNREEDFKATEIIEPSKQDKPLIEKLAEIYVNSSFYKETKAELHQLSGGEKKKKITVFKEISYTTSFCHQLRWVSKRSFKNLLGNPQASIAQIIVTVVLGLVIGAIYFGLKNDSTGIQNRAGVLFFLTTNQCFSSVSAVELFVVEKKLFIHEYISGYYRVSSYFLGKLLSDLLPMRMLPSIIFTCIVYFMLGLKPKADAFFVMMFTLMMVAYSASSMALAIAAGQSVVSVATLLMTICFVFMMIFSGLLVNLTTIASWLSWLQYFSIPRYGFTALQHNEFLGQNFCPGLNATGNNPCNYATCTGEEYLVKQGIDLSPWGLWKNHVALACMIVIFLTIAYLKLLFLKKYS
Test: biochemical
pIC50: −log10 of the molar value.
measured attribute: pIC50

Illustrative cases are given below, each with its answer.
# smiles data, test target, data value
data = [
    ("CCS(=O)(=O)N1CC(CC#N)(n2cc(-c3ncnc4[nH]ccc34)cn2)C1", "BCRP (Homo sapiens, UniProt Q9UNQ0)", "< 4.30"),
    ("COc1cc2nc(N3CCN(C(=O)c4ccco4)CC3)nc(N)c2cc1OC", "BCRP (Homo sapiens, UniProt Q9UNQ0)", "< 4.00"),
]

Fill in the blank: the reported pIC50 of `CCCCc1nc(Cl)c(CO)n1Cc1ccc(-c2ccccc2-c2nn[nH]n2)cc1` is ____. 5.32

---

Items are presented alongside their recorded IC50.
Molecular target: human OAT3 (Homo sapiens)
Sequence (Q8TCC7 1-542): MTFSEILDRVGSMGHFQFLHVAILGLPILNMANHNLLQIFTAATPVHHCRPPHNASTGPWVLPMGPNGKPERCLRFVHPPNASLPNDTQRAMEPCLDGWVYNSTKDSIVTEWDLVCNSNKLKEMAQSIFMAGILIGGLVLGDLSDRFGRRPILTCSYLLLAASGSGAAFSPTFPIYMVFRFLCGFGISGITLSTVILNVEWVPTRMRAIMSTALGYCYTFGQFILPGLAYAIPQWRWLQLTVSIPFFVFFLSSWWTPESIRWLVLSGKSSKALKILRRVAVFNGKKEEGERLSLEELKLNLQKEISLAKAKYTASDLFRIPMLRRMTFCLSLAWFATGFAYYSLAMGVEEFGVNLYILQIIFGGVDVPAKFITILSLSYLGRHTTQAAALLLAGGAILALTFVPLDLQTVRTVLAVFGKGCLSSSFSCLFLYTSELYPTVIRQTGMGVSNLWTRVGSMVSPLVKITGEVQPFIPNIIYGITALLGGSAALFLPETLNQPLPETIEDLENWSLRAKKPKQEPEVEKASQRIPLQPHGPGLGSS

Fill in the blank: the reported IC50 of CCOC(=O)C1=C[C@@H](OC(CC)CC)[C@H](NC(C)=O)[C@@H](N)C1 [Oseltamivir] is ____. > 100 µM

Fill in the blank: the reported IC50 of CN(C)C(=O)COC(=O)Cc1ccc(OC(=O)c2ccc(NC(=N)N)cc2)cc1 [Camostat] is ____. > 100 µM

Fill in the blank: the reported IC50 of CCN(CCO)CCCC(C)Nc1ccnc2cc(Cl)ccc12 (stereo not shown) [Hydroxychloroquine] is ____. > 100 µM

Fill in the blank: the reported IC50 of COc1ccc2cc1Oc1ccc(cc1)C[C@H]1c3cc(c(OC)cc3CCN1C)Oc1c(OC)c(OC)cc3c1[C@H](C2)N(C)CC3 [Tetrandrine] is ____. > 10 µM

Fill in the blank: the reported IC50 of NC(=O)c1ncn([C@@H]2O[C@H](CO)[C@@H](O)[C@H]2O)n1 [Ribavirin] is ____. > 100 µM

Fill in the blank: the reported IC50 of CC[C@H]1OC(=O)[C@H](C)[C@@H](O[C@H]2C[C@@](C)(OC)[C@@H](O)[C@H](C)O2)[C@H](C)[C@@H](O[C@@H]2O[C@H](C)C[C@H](N(C)C)[C@H]2O)[C@](C)(O)C[C@@H](C)CN(C)[C@H](C)[C@@H](O)[C@]1(C)O [Azithromycin] is ____. > 50 µM

Fill in the blank: the reported IC50 of Cc1cccc(C)c1OCC(=O)N[C@@H](Cc1ccccc1)[C@@H](O)C[C@H](Cc1ccccc1)NC(=O)[C@H](C(C)C)N1CCCNC1=O [Lopinavir] is ____. > 100 µM

Fill in the blank: the reported IC50 of COc1cc2c(c(OC)c1OC)-c1ccc(OC)c(=O)cc1[C@@H](NC(C)=O)CC2 [Colchicine] is ____. > 100 µM

Fill in the blank: the reported IC50 of CCN(CC)CCCC(C)Nc1ccnc2cc(Cl)ccc12 (stereo not shown) [Chloroquine] is ____. > 100 µM

Fill in the blank: the reported IC50 of CCCCCCCCc1ccc(CCC(N)(CO)CO)cc1 [Fingolimod] is ____. > 100 µM

---

Tested on: transporters at major organ sites
Test: Prediction of transporter-mediated inhibition / DDI potential
Parameters: species or system human
Conditions: of 11 transporters; FDA criteria
measured attribute: No. of transporters at major organ sites inhibited at clinical concentrations
Answer as a number with no unit attached.

# molecule, data value
measured = [
    ("CCN(CCO)CCCC(C)Nc1ccnc2cc(Cl)ccc12 (stereo not drawn) [Hydroxychloroquine]", 4),
    ("CCCCCCCCc1ccc(CCC(N)(CO)CO)cc1 [Fingolimod]", 0),
    ("Cc1cccc(C)c1OCC(=O)N[C@@H](Cc1ccccc1)[C@@H](O)C[C@H](Cc1ccccc1)NC(=O)[C@H](C(C)C)N1CCCNC1=O [Lopinavir]", 5),
]

Recall the recorded No. of transporters at major organ sites inhibited at clinical concentrations for CCN(CC)CCCC(C)Nc1ccnc2cc(Cl)ccc12 (stereo not drawn) [Chloroquine] with transporters at major organ sites and state it. 4

Recall the recorded No. of transporters at major organ sites inhibited at clinical concentrations for CCOC(=O)C1=C[C@@H](OC(CC)CC)[C@H](NC(C)=O)[C@@H](N)C1 [Oseltamivir] with transporters at major organ sites and state it. 1

Recall the recorded No. of transporters at major organ sites inhibited at clinical concentrations for Cc1oncc1C(=O)Nc1ccc(C(F)(F)F)cc1 [Leflunomide] with transporters at major organ sites and state it. 2

---

Target: human OCT1 (Homo sapiens, UniProt O15245)
Sequence (O15245 whole entry): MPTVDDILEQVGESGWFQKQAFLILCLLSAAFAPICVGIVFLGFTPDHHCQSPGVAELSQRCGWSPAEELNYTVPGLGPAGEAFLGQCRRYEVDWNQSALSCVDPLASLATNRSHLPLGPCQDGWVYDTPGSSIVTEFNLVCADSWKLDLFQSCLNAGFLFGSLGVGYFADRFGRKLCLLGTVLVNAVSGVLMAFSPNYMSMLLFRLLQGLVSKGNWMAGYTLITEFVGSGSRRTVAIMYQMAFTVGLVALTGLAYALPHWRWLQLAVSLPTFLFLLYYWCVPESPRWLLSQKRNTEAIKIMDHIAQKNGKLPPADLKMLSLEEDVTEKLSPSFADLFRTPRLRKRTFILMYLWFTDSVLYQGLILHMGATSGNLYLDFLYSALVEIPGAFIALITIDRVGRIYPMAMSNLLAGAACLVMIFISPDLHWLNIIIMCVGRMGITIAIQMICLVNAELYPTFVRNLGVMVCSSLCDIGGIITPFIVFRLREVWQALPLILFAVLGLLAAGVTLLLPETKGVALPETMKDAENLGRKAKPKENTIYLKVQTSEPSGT
measured attribute: pIC50
FYI, pIC50 means -log10 of a concentration in mol per litre.

# compound, test target, pIC50
records = [
    ("CCCc1nn(C)c2c(=O)[nH]c(-c3cc(S(=O)(=O)N4CCN(C)CC4)ccc3OCC)nc12 [Sildenafil]", "human OCT1 (Homo sapiens, UniProt O15245)", 4.70),
    ("CCN(CCO)CCCC(C)Nc1ccnc2cc(Cl)ccc12 (stereo not drawn) [Hydroxychloroquine]", "human OCT1 (Homo sapiens, UniProt O15245)", 4.70),
]

Here is the next item to consider.
Recall the recorded pIC50 for CN(C)C(=O)COC(=O)Cc1ccc(OC(=O)c2ccc(NC(=N)N)cc2)cc1 [Camostat] with human OCT1 (Homo sapiens, UniProt O15245) and state it. 4.69
